test system: MALME-3M melanoma; assay: NCI-60 one-dose screen, 48 h (100 = growth as untreated, 0 = no growth, -100 = all killed); conditions: 10 µM unless noted
This is part of a sample that, as a whole, favours compounds with a hit. Of some 83,000 tested, about 20% had one in any assay.
value_type: growth (%)
Numbers only, in %.

structure_as_smiles: N#Cc1c(-c2ccc(F)cc2)nc(SCc2ccc(F)cc2)nc1N1CCNCC1
growth, %: -97.8
--
structure_as_smiles: COc1cc2cc(C(=O)N3C[C@@H](CCl)c4c3cc(OC(=O)N(C)CCSSCCN3CCOCC3)c3ccccc43)[nH]c2c(OC)c1OC
growth, %: -83.7

# ---- query compound ----
// query Would you kindly share the measured growth for `CN1CCc2c(sc3ncnc(N/N=C/c4cccc(Cl)c4Cl)c23)C1` ?
// result 87.5

====

test system: NCI-H460 lung; assay: NCI-60 one-dose screen, 48 h (100 = growth as untreated, 0 = no growth, -100 = all killed); conditions: 10 µM unless noted
Compounds without any hit were thinned out: in the full panel of roughly 83,000, 20% have a hit.
Use yes (1) when the recorded growth is no lower than 20%; use no (0) when it is lower.

molecule: COc1ccc2[nH]c(=O)c(CSc3ccccc3Nc3nccc(-c4ccc5c(c4)OCO5)n3)cc2c1
target_under_test: NCI-H460 lung
class: yes (1)
//
molecule: COc1ccc(-c2cc(C(=O)N=Nc3c(O)[nH]c4ccc(Cl)cc34)c3ccccc3n2)cc1OC
target_under_test: NCI-H460 lung
class: yes (1)
//
molecule: C[C@@H]1[C@H]2C[C@@H](C[C@H]1NCc1nc3ccccc3n1C1CCCCCC1)C2(C)C
target_under_test: NCI-H460 lung
class: yes (1)
//
molecule: NS(=O)(=O)c1ccc(Nc2nc(N/N=C/c3cc(Br)c(O)c(Br)c3)nc(Nc3ccccc3)n2)cc1
target_under_test: NCI-H460 lung
class: yes (1)
//
molecule: COc1cc2cc(C(=O)N3C[C@@H](CCl)c4c3cc(OC(=O)N(C)CCSSCCN3CCOCC3)c3ccccc43)[nH]c2c(OC)c1OC
target_under_test: NCI-H460 lung
class: no (0)
//
molecule: Cc1ccc(Cl)cc1NC(=O)Nc1nc2ccc([N+](=O)[O-])cc2s1
target_under_test: NCI-H460 lung
class: no (0)
//
molecule: CC(Nc1ncnc2ccc(-c3ccc4oc(N)nc4c3)cc12)c1ccccc1 (stereo unspecified)
target_under_test: NCI-H460 lung
class: no (0)
//
molecule: COc1cccc(-c2ccc(/C=N/NC(=O)c3[nH]c4ccc(Br)cc4c3-c3ccccc3)s2)c1
target_under_test: NCI-H460 lung
class: no (0)

// query Textbook exercise: given the entry Cc1ccc(C2CC(c3ccc(NC(=O)Nc4ccccc4)cc3)=NN2c2ccc(S(C)(=O)=O)cc2)cc1 (stereo unspecified) , state whether its growth is greater than or equal to 20%.
// result no (0)

====

I'd be grateful if you could share measured growth for these entries.
system: SNB-75 CNS; test: NCI-60 one-dose screen, 48 h (100 = growth as untreated, 0 = no growth, -100 = all killed); details: 10 µM unless noted
The panel holds about 83,000 compounds, 20% with a hit somewhere; the sample as a whole holds those more often.
Answers are plain numbers, in %.

compound: Cc1ccc(S(=O)(=O)N(CCn2ccnc2[N+](=O)[O-])CCn2ccnc2[N+](=O)[O-])cc1
growth (%): 96

compound: Oc1ccc(Cl)c(Nc2ncnc3c2cnn3CC(Cl)c2ccc(Br)cc2)c1 (stereo not given)
growth (%): 3.71

compound: Cc1ccc(C(=O)Nc2cc(-c3ccccc3)cc(C(F)(F)F)c2)cc1C#Cc1cnc2cccnn12
growth (%): 112

compound: Cc1nc2sccn2c1-c1nnc(SCc2ccccc2)o1
growth (%): 106

// query Would you kindly share the measured growth for CCOC(=O)/C(F)=C/C1CC1C(c1ccccc1)c1ccccc1 (stereo not given) ?
// result 90.4

====

system: IGROV1 ovarian; assay: NCI-60 one-dose screen, 48 h (100 = growth as untreated, 0 = no growth, -100 = all killed); settings: 10 µM unless noted
Compounds without any hit were thinned out: in the full panel of roughly 83,000, 20% have a hit.
I'd be grateful if you could share measured growth for these entries.
Numbers only, in %.

As a guide, the following entries are already answered.
compound: N#CCc1nnc(NC(=O)c2ccc(-n3c(=O)[nH]c4ccccc4c3=O)cc2)s1
target_under_test: IGROV1 ovarian
growth [%]: 105
//
compound: C/C(=N/O)c1ccc(NC(=O)CSc2nnc(-c3ccc4nc(-c5ccc(Cl)cc5)[nH]c4c3)o2)cc1
target_under_test: IGROV1 ovarian
growth [%]: 102
//
compound: O=C1CCC(N2C(=O)c3cccc(NCCOCCOCCOCCC(=O)NCCCC(=O)NC(c4ccc5c(c4)OCO5)c4cc(Cl)c5cccnc5c4O)c3C2=O)C(=O)C1 (centres undefined)
target_under_test: IGROV1 ovarian
growth [%]: 15.8

// query Would you kindly share the measured growth for `O=C(CSc1nnc(-c2ccc(-c3nc4ccccc4[nH]3)cc2)o1)Nc1ccc(Br)cc1` ?
// result 35.8

====

system: SN12C renal; experiment: NCI-60 one-dose screen, 48 h; conditions: 10 µM unless noted
Compounds without any hit were thinned out: in the full panel of roughly 83,000, 20% have a hit. Active and inactive are the calls of the source. Rule for the calls: active = growth percent below 10; inactive = the rest.
Pick from class 1 (active), class 0 (inactive) when you respond.

structure_as_smiles: C[C@@H]1[C@H]2C[C@@H](C[C@H]1NCc1nc3ccccc3n1C1CCCCCC1)C2(C)C
class: class 0
--
structure_as_smiles: C=CC(=O)N1CCN(c2ccc3nc4c(nc3c2C(F)(F)F)C(=O)c2ncccc2C4=O)CC1
class: class 1
--
structure_as_smiles: Cc1nn(-c2ccccc2)c2ncn(CC(=O)N/N=C/c3ccccc3O)c(=O)c12
class: class 0
--
structure_as_smiles: COc1ccccc1Nc1nnc(-c2c[nH]c3ccccc23)o1
class: class 0

// query In this assay, the call recorded for `Clc1ccc2c(NCCNC34CC5CC(CC(C5)C3)C4)ccnc2c1` was what?
// result class 1

====

test system: SF-539 CNS; assay: NCI-60 one-dose screen, 48 h (100 = growth as untreated, 0 = no growth, -100 = all killed); settings: 10 µM unless noted
About 83,000 compounds went through this panel and 20% of them were active in at least one assay; those are over-represented in the sample as a whole.
value_type: growth (%)
Numbers only, in %.

compound: COC(=O)c1c(C(=O)OC)c2ccc3c4ccccc4ccc3n2c1C(=O)C(C)Br (centres undefined)
target_under_test: SF-539 CNS
readout_unit: %
readout_value: 17.2

compound: COc1ccc2c(c1)C(Sc1ccc(F)cc1)c1c(nc(N)c(C#N)c1N)O2 (centres undefined)
target_under_test: SF-539 CNS
readout_unit: %
readout_value: 90.5

compound: C#CCCCNCCNc1ccnc2cc(Cl)ccc12
target_under_test: SF-539 CNS
readout_unit: %
readout_value: -13.9

// query Would you kindly share the measured growth for `CN1CCN(C(=O)CCN(C(=O)Oc2cc3c(c4ccccc24)[C@H](CCl)CN3C(=O)c2cc3cc(OCCCN4CCC4)ccc3[nH]2)[C@H]2CCSSC2)CC1` ?
// result -94

====

I'd be grateful if you could share measured growth for these entries.
tested on: PC-3 prostate; assay: NCI-60 one-dose screen, 48 h (100 = growth as untreated, 0 = no growth, -100 = all killed); conditions: 10 µM unless noted
This is part of a sample that, as a whole, favours compounds with a hit. Of some 83,000 tested, about 20% had one in any assay.
One number for each entry, in %.

molecule: S=C(NCCc1ccccc1)Nc1ccc(OCc2nc3ccc(Cl)cc3[nH]2)cc1
readout_value: 39.8
//
molecule: COC(=O)c1cc(C(C)=O)n2c3ccccc3c3ccccc3c12
readout_value: 56.5
//
molecule: CN1C(=O)C2(C(C#N)=C(c3ccc(Cl)cc3)Nc3c2c(-c2ccccc2)nn3-c2ccccc2)c2ccccc21 (stereo not drawn)
readout_value: 85.8
//
molecule: CC(C)C[C@H](NC(=O)CNC(=O)C[C@H]1O[C@@H]2OC3(C)CC[C@H]4[C@H](C)CC[C@@H]([C@H]1C)[C@@]24O3)B(O)O
readout_value: 9.34
//
molecule: COc1ccc(C(=O)C[n+]2cccc3c4ccccc4ccc32)cc1
readout_value: 27.5

For each of the molecules below, state growth.
1. COc1cc(CNC(=O)C[C@H](C)CCC=C(C)C)ccc1OCc1cn(-c2ccc(Br)cc2)nn1
2. O=C(Nc1ccc(-c2ccc3c(c2)NC(=O)/C3=C\c2ccc[nH]2)cc1)Nc1cccc(Cl)c1
3. CCCCN1C(=O)/C(=C\C(=O)c2cc3ccccc3oc2=O)c2ccccc21
4. O=C(Nc1ccc(-c2ccc3c(c2)NC(=O)/C3=C\c2ccc[nH]2)cc1)Nc1ccc(Cl)c(C(F)(F)F)c1
5. CCOC(=O)c1ccc(NC(=S)NC(=O)c2cccc(NC(=O)c3ccc(C)cc3)c2)cc1

// result
1. 81.4
2. 13.5
3. 83.3
4. 39.5
5. 77.5

For each of the molecules below, state growth.
1. Cc1nc(Nc2ccccn2)sc1C1=NNC(c2ccccc2F)C1 (stereo not drawn)
2. COc1cc(CNC(=O)C[C@H](C)CCC=C(C)C)ccc1OCc1cn(-c2ccc(Cl)cc2Cl)nn1
3. COc1cc(C2C(C(=O)OCc3ccccc3)=C(C)Nc3nc4ccccc4n32)cc(OC)c1OC (stereo not drawn)

// result
1. 58.5
2. 85
3. 51.7
